Ref: paper PMC5382200

Tested on: proteinase K
Construct: purchased Roche, Mannheim, Germany
Experiment Summary: Proteolytic digestion assay with RP-HPLC analysis
Type: in vitro ADME
Condition Info: recombinant proteinase K; proteinase K 5 μg/mL (2 U/mg), peptide 5 μM in 10 mM MOPS pH 7, 30°C, 24 h; RP-HPLC C18 peak area at 214 nm; two replicates; read-out: peptide left after 24 h of treatment
Experimental: The proteolytic digestion assays were performed as described ([Ferre et al., 2006]; [López-García et al., 2015]) with minor modifications. Peptides (5 μM) were dissolved in 10 mM MOPS pH 7 and digested with 5 μg/mL of recombinant proteinase K (2 U/mg; Roche, Mannheim, Germany) at 30°C. Aliquots were withdrawn from the reaction mixtures at 0, 1, 2, and 24 h of incubation and immediately heated at 80°C for 10 min to inactivate the enzyme. […]
Positions of bridges follow the written chain, without caps; N, C: chain ends. Residues, ends and D or L forms follow the SMILES beside them.
Value Type: remaining at 24 h, 5 μM

Provide only the value of recorded remaining at 24 h, 5 μM for C[C@@H]1NC(=O)[C@H](C)NC(=O)[C@H](CO)NC(=O)CNC(=O)[C@@H](NC(=O)[C@@H](N)CC(N)=O)CSSC[C@@H](C(=O)N[C@@H](CCC(=O)O)C(=O)O)NC(=O)[C@H](Cc2c[nH]cn2)NC(=O)[C@H](Cc2c[nH]cn2)NC(=O)[C@H](CCCNC(=N)N)NC(=O)[C@H](CC(=O)O)NC(=O)[C@H](CO)NC(=O)[C@H](CCCCN)NC(=O)[C@H](C)NC(=O)[C@H](CCCNC(=N)N)NC(=O)[C@H](CCCCN)NC(=O)[C@H](CC(N)=O)NC1=O [PAF112] (H-NCGSAANKRAKSDRHHCE-OH; disulfide 2-17)
~20%
